Taken from paper PMC10786891.

- Target entity: T1, EsCas13d, nuclease-dead (Eubacterium siraeum, UniProt B0MS50, R295A;H300A;R849A;H854A)
- T1 sequence: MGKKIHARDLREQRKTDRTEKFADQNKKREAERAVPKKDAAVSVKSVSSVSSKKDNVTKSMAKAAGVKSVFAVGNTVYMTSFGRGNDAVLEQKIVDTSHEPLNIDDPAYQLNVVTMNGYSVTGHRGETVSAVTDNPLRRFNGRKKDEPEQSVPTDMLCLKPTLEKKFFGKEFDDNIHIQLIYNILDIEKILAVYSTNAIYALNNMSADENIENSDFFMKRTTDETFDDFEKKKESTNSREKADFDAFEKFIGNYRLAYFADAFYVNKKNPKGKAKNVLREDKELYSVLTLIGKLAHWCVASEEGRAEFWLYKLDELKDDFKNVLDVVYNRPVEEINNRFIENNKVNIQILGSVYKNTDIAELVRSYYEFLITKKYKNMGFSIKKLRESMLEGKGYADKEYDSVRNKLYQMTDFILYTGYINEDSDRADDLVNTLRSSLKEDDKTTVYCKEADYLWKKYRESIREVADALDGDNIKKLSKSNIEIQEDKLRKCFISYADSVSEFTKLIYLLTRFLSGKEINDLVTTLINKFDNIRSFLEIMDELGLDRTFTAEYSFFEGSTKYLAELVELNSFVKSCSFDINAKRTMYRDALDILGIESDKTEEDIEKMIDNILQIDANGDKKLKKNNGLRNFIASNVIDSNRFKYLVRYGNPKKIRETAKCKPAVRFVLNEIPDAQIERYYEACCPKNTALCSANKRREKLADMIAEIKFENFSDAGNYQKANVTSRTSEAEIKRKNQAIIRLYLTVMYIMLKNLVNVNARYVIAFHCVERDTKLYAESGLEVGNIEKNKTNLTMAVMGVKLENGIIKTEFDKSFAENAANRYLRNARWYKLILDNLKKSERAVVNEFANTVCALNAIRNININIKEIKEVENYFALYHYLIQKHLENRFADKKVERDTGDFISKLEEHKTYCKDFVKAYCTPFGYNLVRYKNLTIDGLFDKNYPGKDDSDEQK
- Protocol summary: crRNA (strand 1, pre-loaded); Mg2+; 40 mM Tris-HCl pH 7.5, 150 mM NaCl, 6 mM MgCl2, 1 mM DTT, 0.1% Tween-20, 0.2 mg/ml BSA; 25 C; 10 min per concentration, then washed
- Setup conditions: tags: His6-TwinStrep-SUMO cleaved; N-terminal SNAP kept (SNAP-Surface 488); label: 3' end held by stalled T7 RNA polymerase
pKd: −log10 of the molar value.
Reported pKd values are given for each entry in this list.

{"columns": ["Binder", "pKd"],
 "data": [
  ["target 1 A1C,G13A (mixed) RNA 1: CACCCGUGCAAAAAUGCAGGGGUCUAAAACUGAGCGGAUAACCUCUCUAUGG RNA 2: GGGAAUGGAUCCACAUCUACGAAUUCGUACCAUAGAGAAGUUAUCCGCUCCCCGAGAUCGGAAGAGCACACGU", 7.83],
  ["target 3 A5U,U7G (mixed) RNA 1: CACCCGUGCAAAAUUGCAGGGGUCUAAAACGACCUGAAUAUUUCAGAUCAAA RNA 2: GGGAAUGGAUCCACAUCUACGAAUUCGUUUUUGAUCUGAAAUAUGCUGGUCUGCAGAUCGGAAGAGCACACGU", 7.22],
  ["target 1 insG 3' of 14,insG 3' of 8 (mixed) RNA 1: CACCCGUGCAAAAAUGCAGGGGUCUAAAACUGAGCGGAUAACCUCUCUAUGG RNA 2: GGGAAUGGAUCCACAUCUACGAAUUCGUACCAUAGAGAGGGUUAUGCCGCUCACCGAGAUCGGAAGAGCACACGU", 8.01],
  ["target 1 A18C,C22A (mixed) RNA 1: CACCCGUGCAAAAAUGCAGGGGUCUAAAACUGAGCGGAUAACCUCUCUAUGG RNA 2: GGGAAUGGAUCCACAUCUACGAAUUCGUAACAUCGAGAGGUUAUCCGCUCACCGAGAUCGGAAGAGCACACGU", 7.17]
]}
